Entry source: ChEMBL document CHEMBL3988442

Target: Shiga toxin 2 (Escherichia coli O157:H7) (UniProt P09385+P09386)
Test: E. coli 0.157:H7 Shiga Toxin SOP - stx2 screening assay
Type: functional
Set-up: scale not given: direction of the effect not stated beside the values
Conditions: 30 µM
value type: Percent Effect
// unit must come after the numeric part

Some solved cases for reference:
[[record]]
molecule = "Cc1cccnc1CNCC1(O)CCCN(CC2CCCCC2)C1=O (stereo not drawn)"
value_reported = "13.1%"

[[record]]
molecule = "CCn1ncc2c1CCCC2NCC1=Cc2ccccc2OC1 (stereo not drawn)"
value_reported = "-23.2%"

[[record]]
molecule = "O=C(Nc1nc2c(s1)CCC2)c1cccnc1N1CCOCC1"
value_reported = "-10.3%"


Below are 2 molecules. Give each one its Percent Effect.
1. Cn1nnc2c1CCN(Cc1ccccc1)C2COCC1CC1 (stereo not drawn)
2. CCn1cnnc1C1CCN(C(=O)c2cccc3c2ccn3C)CC1

[A]
-19.5%
-25.8%

Below are 5 molecules. Give each one its Percent Effect.
1. CNc1cc(N2CCCC2CNCc2c[nH]nc2C(C)(C)C)ncn1 (stereo not drawn)
2. Cn1nc2c(cc1=O)CN(Cc1nc(C(C)(C)C)no1)CC2
3. CCN(CC)C(=O)c1ccc(-c2ccsc2)nc1C
4. CC(C)C(C(=O)N1CCC(N(C)c2cccnn2)CC1)n1cncn1 (stereo not drawn)
5. O=c1c2ccccc2nc2n1C(CSc1ccc(Cl)cc1Cl)CN2 (stereo not drawn)

[A]
["-11.5%", "0.187%", "-6.7%", "11.4%", "9.69%"]
